target.desc: wild-type human cardiac sodium channel, hNav1.5 (Homo sapiens, UniProt Q14524)
Construct: host or cells: HEK293
Sequence (Q14524 whole entry): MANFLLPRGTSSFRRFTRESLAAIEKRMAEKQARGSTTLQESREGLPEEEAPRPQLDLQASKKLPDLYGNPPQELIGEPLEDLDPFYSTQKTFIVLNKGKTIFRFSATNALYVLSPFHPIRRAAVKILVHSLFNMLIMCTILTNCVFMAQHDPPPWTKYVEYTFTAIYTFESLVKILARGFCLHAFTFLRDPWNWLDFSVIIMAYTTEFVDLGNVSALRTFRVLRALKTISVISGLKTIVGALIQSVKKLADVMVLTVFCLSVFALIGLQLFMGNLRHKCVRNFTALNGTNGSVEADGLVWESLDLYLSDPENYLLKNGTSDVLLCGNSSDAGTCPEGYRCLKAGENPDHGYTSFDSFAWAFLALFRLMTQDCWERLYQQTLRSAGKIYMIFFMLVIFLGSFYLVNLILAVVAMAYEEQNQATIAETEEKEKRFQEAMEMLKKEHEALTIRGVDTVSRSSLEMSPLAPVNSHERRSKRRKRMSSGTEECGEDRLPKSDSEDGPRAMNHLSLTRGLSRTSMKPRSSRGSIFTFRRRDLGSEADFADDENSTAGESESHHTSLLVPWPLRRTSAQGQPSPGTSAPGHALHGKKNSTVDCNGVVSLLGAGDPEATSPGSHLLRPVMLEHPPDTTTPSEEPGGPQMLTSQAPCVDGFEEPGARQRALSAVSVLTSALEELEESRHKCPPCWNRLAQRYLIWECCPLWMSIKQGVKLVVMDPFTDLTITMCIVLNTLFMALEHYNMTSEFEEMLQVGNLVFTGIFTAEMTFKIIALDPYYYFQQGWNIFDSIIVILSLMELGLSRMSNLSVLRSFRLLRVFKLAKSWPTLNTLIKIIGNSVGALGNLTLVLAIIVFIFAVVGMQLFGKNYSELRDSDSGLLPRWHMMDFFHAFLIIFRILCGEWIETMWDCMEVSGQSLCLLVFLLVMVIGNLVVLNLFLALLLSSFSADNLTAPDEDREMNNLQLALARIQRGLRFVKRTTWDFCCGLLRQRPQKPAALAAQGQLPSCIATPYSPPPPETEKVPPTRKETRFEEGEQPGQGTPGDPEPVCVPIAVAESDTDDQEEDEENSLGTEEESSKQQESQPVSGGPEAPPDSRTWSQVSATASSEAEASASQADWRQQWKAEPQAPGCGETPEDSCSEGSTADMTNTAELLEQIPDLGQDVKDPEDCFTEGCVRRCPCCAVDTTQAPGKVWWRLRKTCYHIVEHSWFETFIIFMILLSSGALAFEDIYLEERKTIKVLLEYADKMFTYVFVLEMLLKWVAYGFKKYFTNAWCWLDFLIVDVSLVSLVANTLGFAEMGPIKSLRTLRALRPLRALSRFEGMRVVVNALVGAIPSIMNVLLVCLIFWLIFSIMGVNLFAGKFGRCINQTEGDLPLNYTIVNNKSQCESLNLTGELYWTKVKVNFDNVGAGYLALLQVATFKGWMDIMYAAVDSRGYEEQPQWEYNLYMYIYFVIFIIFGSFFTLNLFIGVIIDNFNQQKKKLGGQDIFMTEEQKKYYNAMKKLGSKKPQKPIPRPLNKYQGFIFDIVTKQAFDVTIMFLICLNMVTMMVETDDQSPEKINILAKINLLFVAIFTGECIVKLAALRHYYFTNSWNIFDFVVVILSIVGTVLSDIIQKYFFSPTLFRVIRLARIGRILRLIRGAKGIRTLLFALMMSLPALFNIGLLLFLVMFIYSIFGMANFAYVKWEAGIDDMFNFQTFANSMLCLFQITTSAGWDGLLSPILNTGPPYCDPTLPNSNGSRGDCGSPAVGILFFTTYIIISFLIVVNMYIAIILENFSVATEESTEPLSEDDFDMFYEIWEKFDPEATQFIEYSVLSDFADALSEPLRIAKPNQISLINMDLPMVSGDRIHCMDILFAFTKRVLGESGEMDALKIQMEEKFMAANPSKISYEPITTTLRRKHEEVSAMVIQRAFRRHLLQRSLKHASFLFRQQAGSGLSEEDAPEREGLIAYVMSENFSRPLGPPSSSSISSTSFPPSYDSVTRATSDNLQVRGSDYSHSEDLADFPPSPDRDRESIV
measurement.protocol: Late INa screening assay (PatchXpress whole cell patch clamp)
Type: cell-based
cond: compound at 10 uM; HEK293 hNav1.5; late INa generated with Tefluthrin or ATX II; read-out: Late INa 10 uM (percent block of late INa)
metric: inhibition at 10 µM (%)
# number only, unit % dropped from output

I have this compound here, CCOC(=O)c1nc2ccc(-c3ccc(OC(F)(F)F)cc3)cc2n(C)c1=O , and I need its recorded inhibition at 10 µM.
49.3

Another compound to look at: Cn1c(=O)c(C(F)(F)F)nc2ccc(-c3ccc(OC(F)(F)F)cc3)cc21
38.7

Another compound to look at: Cc1nc2ccc(-c3ccc(OC(F)(F)F)cc3)cc2n(C)c1=O
61.7

Another compound to look at: O=C(CO)NCCn1c(=O)c(C(F)(F)F)nc2ccc(-c3ccc(OC(F)(F)F)cc3)cc21
19

Another compound to look at: Cc1nc2ccc(-c3ccc(C(F)(F)F)cc3)cc2n(C)c1=O
58.3

Another compound to look at: CC(C)c1nc2ccc(-c3ccc(OC(F)(F)F)cc3)cc2n(C)c1=O
60.3

Another compound to look at: Cc1nc2cc(-c3cccc(OC(F)(F)F)c3)ccc2n(C)c1=O
70.9

Another compound to look at: Cn1c(=O)c(C(F)(F)F)nc2cc(-c3cccc(C(F)(F)F)c3)ccc21
24

Another compound to look at: Cc1nc2cc(-c3ccc(OC(F)(F)F)cc3)ccc2n(C)c1=O
33.7

Another compound to look at: Cn1c(=O)c(C(F)(F)F)nc2cc(-c3ccc(OC(F)(F)F)cc3)ccc21
39.9

Another compound to look at: Cn1c(=O)cnc2ccc(-c3ccc(F)c(F)c3)cc21
17.5

Another compound to look at: CC(C)c1nc2ccc(-c3cccc(OC(F)(F)F)c3)cc2n(C)c1=O
49.9

Another compound to look at: Cc1nc2cc(-c3ccc(F)c(F)c3)ccc2n(C)c1=O
14.3

Another compound to look at: CCOC(=O)c1nc2ccc(-c3cccc(OC(F)(F)F)c3)cc2n(C)c1=O
54.3

Another compound to look at: Cn1c(=O)c(C(C)(C)C)nc2ccc(-c3ccc(OC(F)(F)F)cc3)cc21
44.6

Another compound to look at: Cn1c(=O)cnc2ccc(-c3ccc(OC(F)(F)F)cc3)cc21
51.6

Another compound to look at: Cc1nc2ccc(-c3cccc(C(F)(F)F)c3)cc2n(C)c1=O
45.5

Another compound to look at: CC(C)(C)c1nc2ccc(-c3cccc(OC(F)(F)F)c3)cc2n(CCNC(=O)CO)c1=O
58.1

Another compound to look at: Cn1c(=O)c(C(C)(C)C)nc2ccc(-c3cccc(OC(F)(F)F)c3)cc21
77.5

Another compound to look at: Cn1c(=O)c(C(F)(F)F)nc2cc(-c3cccc(OC(F)(F)F)c3)ccc21
31.6

Another compound to look at: Cn1c(=O)c(C(C)(C)O)nc2ccc(-c3ccc(OC(F)(F)F)cc3)cc21
54
